assayText: Relaxivity measurements at 1.4 T (MiniSpec mq60, 60 MHz, 37 °C) in water and human plasma
Type: physicochemical
measurementSetup: 1.41 T, human plasma, normalized to Gd
endpoint: r1 human plasma (L/mmol/s)
# number only, unit L/mmol/s dropped from output

Quick note, r1 human plasma for O=C([O-])CN1CCN(CC(=O)[O-])CCN(CC(=O)N(CC(=O)NCC(CNC(=O)CN(C(=O)CN2CCN(CC(=O)[O-])CCN(CC(=O)[O-])CCN(CC(=O)[O-])CC2)C2CCCC2)(CNC(=O)CN(C(=O)CN2CCN(CC(=O)[O-])CCN(CC(=O)[O-])CCN(CC(=O)[O-])CC2)C2CCCC2)CNC(=O)CN(C(=O)CN2CCN(CC(=O)[O-])CCN(CC(=O)[O-])CCN(CC(=O)[O-])CC2)C2CCCC2)C2CCCC2)CCN(CC(=O)[O-])CC1.[Gd+3].[Gd+3].[Gd+3].[Gd+3] [Example 8] landed at 14.1

###

assayText: Relaxivity measurements at 3.0 T (whole body MRI scanner, 37 °C) in water and human plasma
Format: physicochemical
measurementSetup: human plasma, normalized to Gd, average ± standard deviation
Assign r1 human plasma to each entry below.
Please state the figure in L/mmol/s; there is no need to write the unit.

compound "CCOCCN(CC(=O)NCC(CNC(=O)CN(CCOCC)C(=O)CN1CCN(CC(=O)[O-])CCN(CC(=O)[O-])CCN(CC(=O)[O-])CC1)(CNC(=O)CN(CCOCC)C(=O)CN1CCN(CC(=O)[O-])CCN(CC(=O)[O-])CCN(CC(=O)[O-])CC1)CNC(=O)CN(CCOCC)C(=O)CN1CCN(CC(=O)[O-])CCN(CC(=O)[O-])CCN(CC(=O)[O-])CC1)C(=O)CN1CCN(CC(=O)[O-])CCN(CC(=O)[O-])CCN(CC(=O)[O-])CC1.[Gd+3].[Gd+3].[Gd+3].[Gd+3]" , r1 human plasma observed: 11.3

Form: compound = "CCN(CC(=O)NCC(CNC(=O)CN(CC)C(=O)CN1CCN(CC(=O)[O-])CCN(CC(=O)[O-])CCN(CC(=O)[O-])CC1)(CNC(=O)CN(CC)C(=O)CN1CCN(CC(=O)[O-])CCN(CC(=O)[O-])CCN(CC(=O)[O-])CC1)CNC(=O)CN(CC)C(=O)CN1CCN(CC(=O)[O-])CCN(CC(=O)[O-])CCN(CC(=O)[O-])CC1)C(=O)CN1CCN(CC(=O)[O-])CCN(CC(=O)[O-])CCN(CC(=O)[O-])CC1.[Gd+3].[Gd+3].[Gd+3].[Gd+3]" ; r1 human plasma = 11.3

###

So I've got a bunch of molecules here, and I need their Diffusion half-live (20 kDa) values.
assayText: Dynamic CT diffusion phantom study (dialysis cassette in fetal bovine serum)
Format: physicochemical
measurementSetup: dialysis cassette 20,000 MWCO, 20 mmol Gd/L, CT signal over 30 h
Respond numerically; units are h and should not be typed.

// recorded Diffusion half-live (20 kDa) for "O=C([O-])CN1CCN(CC(=O)[O-])CCN(CC(=O)N(CC(=O)NCC(CNC(=O)CN(Cc2ccccc2)C(=O)CN2CCN(CC(=O)[O-])CCN(CC(=O)[O-])CCN(CC(=O)[O-])CC2)(CNC(=O)CN(Cc2ccccc2)C(=O)CN2CCN(CC(=O)[O-])CCN(CC(=O)[O-])CCN(CC(=O)[O-])CC2)CNC(=O)CN(Cc2ccccc2)C(=O)CN2CCN(CC(=O)[O-])CCN(CC(=O)[O-])CCN(CC(=O)[O-])CC2)Cc2ccccc2)CCN(CC(=O)[O-])CC1.[Gd+3].[Gd+3].[Gd+3].[Gd+3]" : 15.0

Lookup result for "O=C([O-])CN1CCN(CC(=O)[O-])CCN(CC(=O)N(CC(=O)NCC(CNC(=O)CN(C(=O)CN2CCN(CC(=O)[O-])CCN(CC(=O)[O-])CCN(CC(=O)[O-])CC2)C2CCCC2)(CNC(=O)CN(C(=O)CN2CCN(CC(=O)[O-])CCN(CC(=O)[O-])CCN(CC(=O)[O-])CC2)C2CCCC2)CNC(=O)CN(C(=O)CN2CCN(CC(=O)[O-])CCN(CC(=O)[O-])CCN(CC(=O)[O-])CC2)C2CCCC2)C2CCCC2)CCN(CC(=O)[O-])CC1.[Gd+3].[Gd+3].[Gd+3].[Gd+3]" ; measured Diffusion half-live (20 kDa): 10.5

Value of measured Diffusion half-live (20 kDa) for the entry "O=C([O-])CN1CCN(CC(=O)[O-])CCN(CC(=O)N(CC(=O)NCC(CNC(=O)CN(C(=O)CN2CCN(CC(=O)[O-])CCN(CC(=O)[O-])CCN(CC(=O)[O-])CC2)C2CC2)(CNC(=O)CN(C(=O)CN2CCN(CC(=O)[O-])CCN(CC(=O)[O-])CCN(CC(=O)[O-])CC2)C2CC2)CNC(=O)CN(C(=O)CN2CCN(CC(=O)[O-])CCN(CC(=O)[O-])CCN(CC(=O)[O-])CC2)C2CC2)C2CC2)CCN(CC(=O)[O-])CC1.[Gd+3].[Gd+3].[Gd+3].[Gd+3]" : 14.0

# Diffusion half-live (20 kDa) of "O=C([O-])CN1CCN(CC(=O)[O-])CCN(CC(=O)N(CC(=O)NCC(CNC(=O)CN(C(=O)CN2CCN(CC(=O)[O-])CCN(CC(=O)[O-])CCN(CC(=O)[O-])CC2)c2ccccc2)(CNC(=O)CN(C(=O)CN2CCN(CC(=O)[O-])CCN(CC(=O)[O-])CCN(CC(=O)[O-])CC2)c2ccccc2)CNC(=O)CN(C(=O)CN2CCN(CC(=O)[O-])CCN(CC(=O)[O-])CCN(CC(=O)[O-])CC2)c2ccccc2)c2ccccc2)CCN(CC(=O)[O-])CC1.[Gd+3].[Gd+3].[Gd+3].[Gd+3]" = 15.1

// Diffusion half-live (20 kDa) lookup, molecule = "CCOCCN(CC(=O)NCC(CNC(=O)CN(CCOCC)C(=O)CN1CCN(CC(=O)[O-])CCN(CC(=O)[O-])CCN(CC(=O)[O-])CC1)(CNC(=O)CN(CCOCC)C(=O)CN1CCN(CC(=O)[O-])CCN(CC(=O)[O-])CCN(CC(=O)[O-])CC1)CNC(=O)CN(CCOCC)C(=O)CN1CCN(CC(=O)[O-])CCN(CC(=O)[O-])CCN(CC(=O)[O-])CC1)C(=O)CN1CCN(CC(=O)[O-])CCN(CC(=O)[O-])CCN(CC(=O)[O-])CC1.[Gd+3].[Gd+3].[Gd+3].[Gd+3]" , result: 10.1
